Data origin, for the record: paper PMC8175851

The following molecules are shown together with reported half-life values.
Assay: Pharmacokinetics of AT and NT in healthy volunteers after a single dose of 25 mg amitriptyline
Type: in vivo, human
Details: both sexes, human, plasma, po, 25 mg, healthy volunteers, single oral 25 mg AT; CYP2D6 activity 1.5 (n = 6); mean
Report as a plain number; the unit h is understood.

smiles-string | half-life (h)
CNCCC=C1c2ccccc2CCc2ccccc21 | 51.9

Query: Need half-life, item `CN(C)CCC=C1c2ccccc2CCc2ccccc21`
Result: 19.8

====

Test: Pharmacokinetics of AT and NT in healthy volunteers after a single dose of 25 mg amitriptyline
Format: in vivo, human
Settings: both sexes, human, plasma, po, 25 mg, healthy volunteers, single oral 25 mg AT, plasma; CYP2D6 activity 1 (n = 10); mean; read-out: AUC48h
Method: In order to enrich the study sample with the less frequent functionally deficient OCT1 variants, participants were selected based on OCT1 genotype from an internal database at the Institute of Clinical Pharmacology of the University Medical Center Göttingen. […] The lower limit of quantification was 0.5 ng/ml for AT and 0.1 ng/ml for NT. […] Pharmacokinetic parameters were calculated by non-compartmental analysis using Phoenix 64 WinNonlin version 6.3 (Certara Inc., Princeton, NJ, United States). […]
measurement-label: AUC(0-t) (ng·h/mL)
Respond numerically; units are ng·h/mL and should not be typed.

molecule | measurement-label | readout-unit | recorded-measurement
CNCCC=C1c2ccccc2CCc2ccccc21 [Nortriptyline, nortriptyline] | AUC(0-t) | ng·h/mL | 104

# context switch: different molecule, same AUC(0-t)
Query: Please report the recorded AUC(0-t) for CN(C)CCC=C1c2ccccc2CCc2ccccc21 [Amitriptyline, amitriptyline] .
Result: 199

====

Entries and their AUC(0-t)
Assay: Pharmacokinetics of AT and NT in healthy volunteers after a single dose of 25 mg amitriptyline
Format: in vivo, human
Conditions: both sexes, human, plasma, po, 25 mg, healthy volunteers, single oral 25 mg AT, plasma; CYP2D6 activity 2.5 (n = 1); mean; read-out: AUC48h
Write it as a number; the unit ng·h/mL goes unstated.

molecule | measurement-label | recorded-measurement
CN(C)CCC=C1c2ccccc2CCc2ccccc21 [Amitriptyline, amitriptyline] | AUC(0-t) | 142

Query: Field request: AUC(0-t) | item: CNCCC=C1c2ccccc2CCc2ccccc21 [Nortriptyline, nortriptyline]
Result: 89.1

====

Target: OCT1 (Homo sapiens)
Construct: expressed in transfected cells
Sequence (O15245 whole entry): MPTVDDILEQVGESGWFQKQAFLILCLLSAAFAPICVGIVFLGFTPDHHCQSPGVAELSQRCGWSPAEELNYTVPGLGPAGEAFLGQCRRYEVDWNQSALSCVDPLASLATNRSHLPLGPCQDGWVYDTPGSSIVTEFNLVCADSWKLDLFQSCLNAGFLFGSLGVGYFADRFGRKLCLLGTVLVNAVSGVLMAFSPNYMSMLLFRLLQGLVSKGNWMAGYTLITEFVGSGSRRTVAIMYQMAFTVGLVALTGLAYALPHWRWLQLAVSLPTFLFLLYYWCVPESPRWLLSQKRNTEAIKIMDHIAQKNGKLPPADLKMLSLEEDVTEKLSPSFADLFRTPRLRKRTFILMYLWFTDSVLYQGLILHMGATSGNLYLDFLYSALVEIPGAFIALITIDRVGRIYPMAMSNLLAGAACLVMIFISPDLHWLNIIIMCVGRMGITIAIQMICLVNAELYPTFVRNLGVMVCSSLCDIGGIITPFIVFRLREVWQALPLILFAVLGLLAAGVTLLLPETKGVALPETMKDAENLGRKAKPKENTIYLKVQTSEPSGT
Test: in vitro
Settings: human, HEK293 cells stably transfected with wild-type OCT1
measurement-label: inhibition at 3 min, 2.69 µM (%)
Please state the figure in %; there is no need to write the unit.

Query: // query inhibition at 3 min, 2.69 µM value for entry CN(C)CCC=C1c2ccccc2CCc2ccccc21 [Amitriptyline, amitriptyline]
Result: 23

====

Measured Cmax accompanies every entry in the list below.
Experiment: Pharmacokinetics of AT and NT in healthy volunteers after a single dose of 25 mg amitriptyline
Format: in vivo, human
Conditions: human, plasma, po, 25 mg, healthy volunteers, single oral 25 mg AT, plasma; CYP2C19 activity score 3 (n = 1); mean; read-out: Cmax
Lab book: enter the figure in ng/mL, no units written.

compound | recorded-measurement
CNCCC=C1c2ccccc2CCc2ccccc21 [Nortriptyline, nortriptyline] | 6.5

Now, please, on to the next compound.
Query: Which Cmax is listed for CN(C)CCC=C1c2ccccc2CCc2ccccc21 [Amitriptyline, amitriptyline] ?
Result: 13.9
